- target: UniProt:P14618
- protocol_description: PKM2 Assay (LDH/NADH-coupled, absorbance at 340 nm)
- Assay type: biochemical
- measurement_context: wild type PKM2 activation; 60 min preincubation at 25° C.; ADP 0.4 mM, PEP 0.11 mM; read-out: PKM2 WT AC50

| compound | target | AC50 |
| --- | --- | --- |
| Cn1c2nc([S+](C)[O-])sc2c2cnn(Cc3cnc(N)s3)c(=O)c21 (centres unmarked) [Compound 38] | UniProt:P14618 | < 300 nM |
| Cn1c2nc(Cc3cnoc3)sc2c2cnn(Cc3cccc4[nH]ncc34)c(=O)c21 [Compound 65] | UniProt:P14618 | < 300 nM |
| Cn1c2nc(C#N)sc2c2cnn(Cc3csc(N)n3)c(=O)c21 [Compound 54] | UniProt:P14618 | < 300 nM |
| Cn1c2nc(Cc3cc[nH]n3)sc2c2cnn(Cc3ccccc3)c(=O)c21 [Compound 72] | UniProt:P14618 | < 300 nM |
| CSc1nc2c(s1)c1cnn(Cc3cn4cccnc4n3)c(=O)c1n2C [Compound 40] | UniProt:P14618 | > 800 nM |
| Cn1ccc(Cn2ncc3c4sc(C(=O)c5cc[nH]n5)nc4n(C)c3c2=O)n1 [Compound 122] | UniProt:P14618 | < 300 nM |
| CC(=O)c1cccc(CC(c2cc[nH]n2)c2nc3c(s2)c2cnn(Cc4cccc(C(C)=O)c4)c(=O)c2n3C)c1 (centres unmarked) [Compound 71] | UniProt:P14618 | > 800 nM |
| Cn1cc(Cc2nc3c(s2)c2cnn(Cc4cccc5[nH]ncc45)c(=O)c2n3C)cn1 [Compound 66] | UniProt:P14618 | < 300 nM |

* * *

- target: wild type PKM2 (Homo sapiens, UniProt P14618)
- Sequence (P14618 whole entry): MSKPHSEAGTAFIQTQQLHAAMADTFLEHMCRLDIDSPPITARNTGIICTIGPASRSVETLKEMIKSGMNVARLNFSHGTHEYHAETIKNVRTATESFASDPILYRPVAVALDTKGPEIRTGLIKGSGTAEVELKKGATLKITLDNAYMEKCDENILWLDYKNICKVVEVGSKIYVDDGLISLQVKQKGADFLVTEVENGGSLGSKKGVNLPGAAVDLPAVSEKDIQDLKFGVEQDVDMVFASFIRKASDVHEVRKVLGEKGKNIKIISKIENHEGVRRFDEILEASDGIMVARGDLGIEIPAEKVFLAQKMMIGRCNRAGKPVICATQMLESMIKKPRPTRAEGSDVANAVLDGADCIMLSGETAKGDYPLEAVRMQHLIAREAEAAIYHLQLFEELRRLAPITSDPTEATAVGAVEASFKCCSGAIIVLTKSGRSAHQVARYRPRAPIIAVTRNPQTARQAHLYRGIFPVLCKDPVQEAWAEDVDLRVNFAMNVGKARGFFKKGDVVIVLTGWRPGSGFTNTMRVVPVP
- protocol_description: PKM2 Assay (LDH/NADH-coupled, absorbance at 340 nm)
- Format: biochemical
- measurement_context: wild type PKM2 activation; 60 min preincubation at 25° C.; ADP 0.4 mM, PEP 0.11 mM; read-out: PKM2 WT AC50

| molecule | AC50 |
| --- | --- |
| Cn1c2nc(Cc3ccns3)sc2c2cnn(Cc3cccc4[nH]ncc34)c(=O)c21 | 301 to 800 nM |
| Cn1c2nc(Cc3c[nH]nn3)sc2c2cnn(Cc3ccccc3)c(=O)c21 | > 800 nM |
| Cn1c2nc(Cc3cc[nH]n3)sc2c2cnn(CCc3cccc(N)n3)c(=O)c21 | < 300 nM |
| Cc1nc2c(s1)c1cnn(Cc3cccc([N+](=O)[O-])c3)c(=O)c1n2C | 301 to 800 nM |
| Cn1c2nc(Cc3cc[nH]n3)sc2c2cnn(Cc3csc(N)n3)c(=O)c21 | < 300 nM |
| CCOC(=O)Cn1ncc2c3sc(C)nc3n(C)c2c1=O | > 800 nM |
| Cn1c2nc(C3(c4ccccc4)CC3)sc2c2cnn(Cc3cccc4[nH]ncc34)c(=O)c21 | > 800 nM |
| Cn1c2nc(CN)sc2c2cnn(Cc3cccc4[nH]ncc34)c(=O)c21 | 301 to 800 nM |
| Cn1ccc(Cn2ncc3c4sc(CCc5cccnc5)nc4n(C)c3c2=O)n1 | > 800 nM |
| Cn1c2nc(Cc3cc[nH]n3)sc2c2cnn(Cc3cccc4c3NS(=O)(=O)N4)c(=O)c21 | 301 to 800 nM |
| Cn1c2nc(Cc3cc[nH]n3)sc2c2cnn(Cc3nccs3)c(=O)c21 | < 300 nM |
| Cn1c2nc(Cc3cc[nH]n3)sc2c2cnn(Cc3cccc4nn[nH]c34)c(=O)c21 | < 300 nM |
| Cn1c2nc([S+](C)[O-])sc2c2cnn(Cc3ccc(C(N)=O)cc3)c(=O)c21 (centres unmarked) | > 800 nM |
| Cc1nc2c(s1)c1cnn(Cc3cccc(C(=O)O)c3)c(=O)c1n2C | > 800 nM |
| COCc1cn(C)nc1Cn1ncc2c3sc(Cc4cc[nH]n4)nc3n(C)c2c1=O | > 800 nM |
| Cn1c2nc(Cc3n[nH]cc3F)sc2c2cnn(Cc3n[nH]cc3OC(F)(F)F)c(=O)c21 | 301 to 800 nM |
| Cc1nc2c(s1)c1cnn(Cc3cn[nH]c3)c(=O)c1n2C | 301 to 800 nM |
